# system-tested: guanylyl cyclase type C (GC-C) (Homo sapiens)
# Sequence (P25092 24-1073): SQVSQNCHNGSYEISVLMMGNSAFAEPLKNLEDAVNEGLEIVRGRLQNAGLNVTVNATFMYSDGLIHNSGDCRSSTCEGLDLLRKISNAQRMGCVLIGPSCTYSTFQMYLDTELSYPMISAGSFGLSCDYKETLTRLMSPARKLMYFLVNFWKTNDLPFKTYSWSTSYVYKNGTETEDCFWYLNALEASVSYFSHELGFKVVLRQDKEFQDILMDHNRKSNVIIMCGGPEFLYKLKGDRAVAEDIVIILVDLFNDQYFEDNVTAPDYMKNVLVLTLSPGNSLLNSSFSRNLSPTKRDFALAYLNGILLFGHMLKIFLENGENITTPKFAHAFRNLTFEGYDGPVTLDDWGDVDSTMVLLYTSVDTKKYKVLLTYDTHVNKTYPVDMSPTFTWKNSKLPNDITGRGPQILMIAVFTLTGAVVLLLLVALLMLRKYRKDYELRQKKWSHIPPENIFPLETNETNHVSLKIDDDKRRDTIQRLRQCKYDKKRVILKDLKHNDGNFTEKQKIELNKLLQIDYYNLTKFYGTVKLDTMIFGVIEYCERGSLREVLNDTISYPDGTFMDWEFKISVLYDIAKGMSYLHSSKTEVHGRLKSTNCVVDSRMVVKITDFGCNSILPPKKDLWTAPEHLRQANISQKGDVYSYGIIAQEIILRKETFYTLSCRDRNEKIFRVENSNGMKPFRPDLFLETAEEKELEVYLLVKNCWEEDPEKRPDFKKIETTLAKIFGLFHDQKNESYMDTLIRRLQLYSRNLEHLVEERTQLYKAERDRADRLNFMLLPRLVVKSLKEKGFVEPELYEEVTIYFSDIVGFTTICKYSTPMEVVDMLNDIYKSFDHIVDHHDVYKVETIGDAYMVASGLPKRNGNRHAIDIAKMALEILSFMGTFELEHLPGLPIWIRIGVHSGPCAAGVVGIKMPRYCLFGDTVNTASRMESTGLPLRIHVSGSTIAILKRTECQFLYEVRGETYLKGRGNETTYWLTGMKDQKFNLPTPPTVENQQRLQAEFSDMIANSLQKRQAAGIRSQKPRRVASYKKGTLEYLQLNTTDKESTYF
# test-description: STa-induced activation of GC-C in T84 cells (cyclic GMP accumulation, ELISA)
# Assay type: cell-based
# Set-up: endogenous in cells; host or cells: T84 cells
# condition-summary: 100 nM STa, read-out: IC50, inhibition of cyclic GMP synthesis
measured-metric: pIC50
Note on units: pIC50 is unitless, being -log10 of a concentration expressed in mol/L.

(Q) Fill in: pIC50 of Cn1c2c(c(=O)n(C)c1=O)C(c1cccc(Br)c1)C1=C(N2)c2ccccc2C1=O (stereo not shown) is ___
(A) 5.47
